target-of-assay: recombinant HCV NS5B (HCV RNA-dependent RNA polymerase) (Hepatitis C virus genotype 1b)
Sequence (P26663 2420-3010 limits assumed): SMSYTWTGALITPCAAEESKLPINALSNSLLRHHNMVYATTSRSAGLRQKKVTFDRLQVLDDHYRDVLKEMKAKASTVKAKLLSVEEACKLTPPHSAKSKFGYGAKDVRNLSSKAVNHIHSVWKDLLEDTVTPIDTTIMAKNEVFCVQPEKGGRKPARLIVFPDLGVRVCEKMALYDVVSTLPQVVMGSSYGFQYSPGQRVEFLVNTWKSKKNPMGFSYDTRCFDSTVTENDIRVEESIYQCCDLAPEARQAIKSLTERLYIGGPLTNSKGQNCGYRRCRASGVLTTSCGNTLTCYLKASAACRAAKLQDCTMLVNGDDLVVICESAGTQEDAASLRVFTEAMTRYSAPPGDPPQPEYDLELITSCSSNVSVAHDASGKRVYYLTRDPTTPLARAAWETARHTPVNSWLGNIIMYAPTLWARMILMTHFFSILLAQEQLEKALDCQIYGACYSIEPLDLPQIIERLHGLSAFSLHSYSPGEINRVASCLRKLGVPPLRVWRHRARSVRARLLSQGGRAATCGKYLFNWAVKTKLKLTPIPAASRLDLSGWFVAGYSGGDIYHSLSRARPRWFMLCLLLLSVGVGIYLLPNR
experiment-notes: biochemical
cond: related polymerase activity (Example 27 list); read-out: IC50
Measured IC50 accompanies every entry in the list below.

molecule | target-of-assay | IC50
CC(C)N(C(=O)c1cc(Cl)cc(Cl)c1)c1cc(-c2ccccc2)sc1C(=O)O | recombinant HCV NS5B (HCV RNA-dependent RNA polymerase) (Hepatitis C virus genotype 1b) | 5 to 20 µM
CCOC(=O)c1c(C)c(S(=O)(=O)Nc2cc(-c3ccccc3)sc2C(=O)O)c(-c2ccc(Cl)cc2)n1-c1ccccc1 | recombinant HCV NS5B (HCV RNA-dependent RNA polymerase) (Hepatitis C virus genotype 1b) | 5 to 20 µM
CC(C)Cc1ccc(-c2cc(NS(=O)(=O)c3ccc(C#N)cc3Cl)c(C(=O)O)s2)cc1 | recombinant HCV NS5B (HCV RNA-dependent RNA polymerase) (Hepatitis C virus genotype 1b) | > 20 µM
Cc1ccc(C(=O)N(C)c2cc(-c3cccc(C#N)c3)sc2C(=O)O)cc1 | recombinant HCV NS5B (HCV RNA-dependent RNA polymerase) (Hepatitis C virus genotype 1b) | < 5 µM
CN(C(=O)c1ccc(C(C)(C)C)cc1)c1cc(-c2ccccc2)sc1C(=O)O | recombinant HCV NS5B (HCV RNA-dependent RNA polymerase) (Hepatitis C virus genotype 1b) | 5 to 20 µM
CC(C)(C)OC(=O)N1CCC(N(C(=O)c2ccc(Cl)cc2Cl)c2cc(-c3ccccc3)sc2C(=O)O)CC1 | recombinant HCV NS5B (HCV RNA-dependent RNA polymerase) (Hepatitis C virus genotype 1b) | < 5 µM
CC1CCC(C(=O)N(c2cc(-c3cccc(C(F)(F)F)c3)sc2C(=O)O)C(C)C)CC1 (stereo not shown) | recombinant HCV NS5B (HCV RNA-dependent RNA polymerase) (Hepatitis C virus genotype 1b) | < 5 µM
CC(=O)c1cc(-c2cc(NS(=O)(=O)c3ccc(C)cc3C)c(C(=O)O)s2)cs1 | recombinant HCV NS5B (HCV RNA-dependent RNA polymerase) (Hepatitis C virus genotype 1b) | < 5 µM
CCCCc1ccc(C(=O)N(C)c2cc(-c3ccccc3)sc2C(=O)O)cc1 | recombinant HCV NS5B (HCV RNA-dependent RNA polymerase) (Hepatitis C virus genotype 1b) | > 20 µM
Cc1ccc(S(=O)(=O)Nc2cc(-c3ccccc3)sc2C(=O)O)c([N+](=O)[O-])c1 | recombinant HCV NS5B (HCV RNA-dependent RNA polymerase) (Hepatitis C virus genotype 1b) | 5 to 20 µM
Cc1ccccc1S(=O)(=O)Nc1cc(-c2sccc2C)sc1C(=O)O | recombinant HCV NS5B (HCV RNA-dependent RNA polymerase) (Hepatitis C virus genotype 1b) | 5 to 20 µM
CC(C)N(C(=O)c1ccc(Cl)cc1Cl)c1cc(-c2ccc(S(C)(=O)=O)cc2)sc1C(=O)O | recombinant HCV NS5B (HCV RNA-dependent RNA polymerase) (Hepatitis C virus genotype 1b) | < 5 µM
O=C(O)c1sc(-c2ccccc2)cc1NS(=O)(=O)c1cccc(Br)c1 | recombinant HCV NS5B (HCV RNA-dependent RNA polymerase) (Hepatitis C virus genotype 1b) | 5 to 20 µM
CC(C)N(C(=O)c1cc(F)c(Cl)cc1F)c1cc(-c2ccccc2)sc1C(=O)O | recombinant HCV NS5B (HCV RNA-dependent RNA polymerase) (Hepatitis C virus genotype 1b) | 5 to 20 µM
Cc1ccc(C(=O)N(C)c2cc(-c3ccc(OC(F)(F)F)cc3)sc2C(=O)O)cc1 | recombinant HCV NS5B (HCV RNA-dependent RNA polymerase) (Hepatitis C virus genotype 1b) | 5 to 20 µM
CCOC(=O)c1ccccc1-c1cc(NS(=O)(=O)c2ccccc2C)c(C(=O)O)s1 | recombinant HCV NS5B (HCV RNA-dependent RNA polymerase) (Hepatitis C virus genotype 1b) | 5 to 20 µM
